- tested_on: fMet-Leu-Phe receptor (Homo sapiens, UniProt P21462)
- Sequence (P21462 whole entry): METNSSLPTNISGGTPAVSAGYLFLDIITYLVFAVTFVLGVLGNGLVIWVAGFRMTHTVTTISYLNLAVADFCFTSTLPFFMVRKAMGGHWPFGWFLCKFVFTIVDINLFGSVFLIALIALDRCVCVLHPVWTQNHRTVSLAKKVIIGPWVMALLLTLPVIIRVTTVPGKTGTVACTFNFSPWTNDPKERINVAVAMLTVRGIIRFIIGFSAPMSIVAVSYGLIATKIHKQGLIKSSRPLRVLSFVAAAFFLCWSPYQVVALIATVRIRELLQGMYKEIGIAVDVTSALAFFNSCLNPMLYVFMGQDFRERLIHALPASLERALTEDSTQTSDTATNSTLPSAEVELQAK
- assay_explanation: FPR ligands, dose response (AID 519)
- Format: functional
The source made the active and inactive calls.
Catalogue of Ki values

Take a look at these entries with their results.
compound | reported_result
COc1ccc(C2C(C(=O)c3ccco3)=C(O)C(=O)N2Cc2cccnc2)cc1OC (centres undefined) | > 66.7 µM (inactive)
COc1ccc(OC)c(C2C(C(=O)c3cc4ccccc4o3)=C(O)C(=O)N2c2cc(C)on2)c1 (centres undefined) | 36.6 µM (inactive)
CCOc1cc(C2C(C(=O)c3ccc(C)o3)=C(O)C(=O)N2CCc2ccccc2)ccc1O (centres undefined) | 30.4 µM (inactive)

# input for lookup
Enquiry: // lookup Ki for "Cc1nc2c(C#N)c(C)nn2c(O)c1Cc1ccccc1"
Return: 50 µM (inactive)

----------
- assay_explanation: inhibitors of SNCA 5'UTR-driven reporter translation, confirmation, H4 neuroglioma cells, luminescence (AID 1988)
- Format: functional, cell-based
Where a name gives a salt, the structure may show the parent alone. Activity calls are given as the source filed them.
Catalogue of EC50 values

compound | endpoint_label | reported_result
Cc1cccc(C)c1NS(=O)(=O)c1ccc(-c2cnc(C3CC3)o2)cc1 | EC50 | < 0.1 µM (active)
C1CCC(C(CC2CCCCN2)C2CCCCC2)CC1 (stereo unspecified) [PERHEXILINE MALEATE] | EC50 | 8.95 µM (active)
Cc1nc2ncccn2c1-c1csc(Nc2ccc(N(C)C)cc2)n1 | EC50 | < 0.1 µM (inconclusive)
CCOc1ccccc1NC(=O)Cn1nnc(C(=O)NCc2cccs2)c1N | EC50 | < 0.1 µM (active)
CCCC1O[C@@H]2CC3C4CCC5=CC(=O)C=C[C@]5(C)C4C(OC(C)=O)C[C@]3(C)[C@]2(C(=O)COC(C)=O)O1 (stereo partly specified) | EC50 | 18.8 µM (active)

# input for lookup
Enquiry: // lookup EC50 for "CC(=O)N(C)C1=C(N2CCOCC2)C(=O)c2ccccc2C1=O"
Return: 7.74 µM (active)

----------
- tested_on: Rac GTPase-activating protein 1 (Homo sapiens)
- Sequence (Q9H0H5 whole entry): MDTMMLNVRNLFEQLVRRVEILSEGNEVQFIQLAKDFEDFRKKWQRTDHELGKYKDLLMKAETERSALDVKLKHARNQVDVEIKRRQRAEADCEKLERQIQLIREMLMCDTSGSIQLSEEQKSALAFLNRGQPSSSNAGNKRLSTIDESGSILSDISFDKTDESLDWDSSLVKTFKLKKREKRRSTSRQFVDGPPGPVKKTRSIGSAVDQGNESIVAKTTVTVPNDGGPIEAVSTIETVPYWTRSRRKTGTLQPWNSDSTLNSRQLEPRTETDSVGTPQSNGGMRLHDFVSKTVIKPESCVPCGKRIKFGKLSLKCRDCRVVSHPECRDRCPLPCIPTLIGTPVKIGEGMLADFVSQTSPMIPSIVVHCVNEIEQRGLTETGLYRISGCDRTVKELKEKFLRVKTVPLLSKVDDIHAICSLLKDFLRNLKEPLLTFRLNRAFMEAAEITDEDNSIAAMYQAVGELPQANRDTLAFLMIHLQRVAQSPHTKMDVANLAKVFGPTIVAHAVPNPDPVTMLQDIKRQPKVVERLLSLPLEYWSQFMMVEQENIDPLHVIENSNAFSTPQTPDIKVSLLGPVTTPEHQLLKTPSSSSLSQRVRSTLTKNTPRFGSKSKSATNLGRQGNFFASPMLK
- assay_explanation: MgcRacGAP GTPase-activating activity inhibitors, confirmation, biochemical, ADP Hunter fluorescence, primary and confirmatory (AID 624330)
- Assay type: functional
Calls of active or inactive are those of the source.
Catalogue of IC50 values

Take a look at these entries with their results.
compound | tested_on | IC50
Cc1ccc(S(=O)(=O)Nc2nsc(N)n2)cc1 | Rac GTPase-activating protein 1 (Homo sapiens) | 82.8 µM (active)
COc1cccc(N2CC(C(=O)Oc3ccc4ccccc4c3)CC2=O)c1 (centres undefined) | Rac GTPase-activating protein 1 (Homo sapiens) | 16.1 µM (active)
CN(C)CCC(=O)N1C/C(=C/c2ccccc2)C(=O)/C(=C\c2ccccc2)C1 | Rac GTPase-activating protein 1 (Homo sapiens) | 167 µM (active)
Cc1cc(NC(=O)CN2CCN(C)CC2)no1 | Rac GTPase-activating protein 1 (Homo sapiens) | 157 µM (active)
O=S(=O)(O)c1cc(O)c(N=Nc2ccc(O)cc2O)c2ccccc12 | Rac GTPase-activating protein 1 (Homo sapiens) | 28.8 µM (active)

Enquiry: // lookup IC50 for "COc1ccccc1CNCC(=O)Nc1ccc(N(C)C)cc1"
Return: 32.1 µM (active)

Enquiry: Repeat with "O=C1NC(=O)C(=Cc2cccs2)C(=O)N1"
Return: 188 µM (active)

Enquiry: Repeat with "Nc1ccc(N2CCN(C(=O)c3cccs3)CC2)cc1"
Return: 19 µM (active)

Enquiry: Repeat with Cc1[nH]ccc2c1[nH]c1cc(=O)ccc12 [HARMOL]
Return: 44.9 µM (active)

----------
- tested_on: Cytochrome P450 1A2 (Homo sapiens)
- Sequence (P05177 whole entry): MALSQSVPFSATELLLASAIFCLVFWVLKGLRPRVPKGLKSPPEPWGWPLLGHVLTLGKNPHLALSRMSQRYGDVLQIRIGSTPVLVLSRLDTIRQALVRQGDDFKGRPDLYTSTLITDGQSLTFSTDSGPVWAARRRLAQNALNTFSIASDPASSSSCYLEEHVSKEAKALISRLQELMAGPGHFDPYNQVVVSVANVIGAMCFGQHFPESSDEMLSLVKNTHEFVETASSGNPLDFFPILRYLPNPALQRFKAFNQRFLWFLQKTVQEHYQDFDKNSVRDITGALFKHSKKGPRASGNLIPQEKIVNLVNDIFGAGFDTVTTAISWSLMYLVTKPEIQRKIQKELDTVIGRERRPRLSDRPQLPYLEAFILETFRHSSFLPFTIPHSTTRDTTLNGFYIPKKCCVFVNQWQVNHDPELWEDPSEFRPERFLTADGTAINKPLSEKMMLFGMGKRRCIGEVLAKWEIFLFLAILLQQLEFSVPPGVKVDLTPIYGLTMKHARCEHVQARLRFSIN
Catalogue of AC50 values

Enquiry: Which measured AC50 belongs to "O=C(Oc1ccc([N+](=O)[O-])cc1)N1CCC(N2CCCCC2)CC1" , tested on Cytochrome P450 1A2 (Homo sapiens)?;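 further: PubChem cytochrome P450 panel assay, CYP1A2 panel member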
Return: 20 µM (inconclusive)

Enquiry: Repeat with "N[C@@H](Cn1cc(F)c(=O)[nH]c1=O)C(=O)O"
Return: 31.6 µM (inconclusive)

Enquiry: Repeat with "COC(=O)[C@@]1(Cc2ccc(OC)cc2)[C@H]2c3cc(C(=O)N4CCCC4)n(CCCNc4ncc(C(F)(F)F)cc4Cl)c3C[C@H]2CN1C(=O)c1ccccc1"
Return: 31.6 µM (inconclusive)

Enquiry: Repeat with CCCCCC1=C2CNC(CC(C)C)(C(=O)OC)C=C2C(C)C1=O (stereo not given)
Return: 25.1 µM (inconclusive)

Enquiry: Repeat with "O=C(/C=C/c1ccc(Br)cc1)NC1CCCCCC1"
Return: 2 µM (inconclusive)

----------
- assay_explanation: cytotoxicity toward NIH3T3 fibroblasts, dose response, counter-screen, cell-based, ATP luminescence, mouse fibroblasts (AID 2010);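 further: cells exposed to compound for about 90 hours before reading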
- Format: functional
Active and inactive are the calls of the source.
endpoint_label: EC50

compound | EC50
COc1ccc(OCCCC(=O)Nc2nc(-c3ccccn3)cs2)cc1 | 4.35 µM (active)
COc1ccc(C(=N)NOC(=O)c2c(-c3ccccc3Cl)noc2C)cc1OC | 10.7 µM (active)
COc1ccc(C(CNc2ccc(S(=O)(=O)N3CCCC3)cc2[N+](=O)[O-])N2CCCC2)cc1 (configuration not stated) | 31.8 µM (active)
CN(CCNC(=O)C1CC(=O)N(c2ccc(F)c(Cl)c2)C1)Cc1ccccc1 (configuration not stated) | > 60 µM (not active)
CN(C)CCNC(=O)COc1ccc(C23CC4CC(CC(C4)C2)C3)cc1 | > 60 µM (inconclusive)
CCOC(=O)c1c(NC(=O)CSc2n[nH]c3c4ccccc4nc-3n2)sc2c1CCN(C)C2 | > 60 µM (not active)
CCOC(=O)c1cnc2ccc(C)cc2c1Sc1ccccc1C(=O)OC | > 60 µM (not active)
CCCCn1nc(C(=O)Nc2nc3c(s2)CCCC3)c2ccccc2c1=O | > 60 µM (inconclusive)
O=C1c2cccc3cccc(c23)C(=O)N1CC1CCN(CC(O)COc2ccc3ccccc3c2)CC1 (configuration not stated) | > 60 µM (not active)
CCOC(=O)c1c(NC(=O)CSc2nnc(-c3ccncc3)n2Cc2ccco2)sc(C)c1C | > 60 µM (not active)

Enquiry: // lookup EC50 for "Cc1ccc(S(=O)(=O)Nc2ccc(N3CCN(C)CC3)nc2)cc1"
Return: > 60 µM (not active)

Enquiry: Repeat with "c1ccc2c(NCCc3c[nH]c4ccccc34)c3ccccc3nc2c1"
Return: 11.9 µM (active)

----------
- tested_on: Zinc finger protein mex-5 (Caenorhabditis elegans)
- Sequence (Q9XUB2 whole entry): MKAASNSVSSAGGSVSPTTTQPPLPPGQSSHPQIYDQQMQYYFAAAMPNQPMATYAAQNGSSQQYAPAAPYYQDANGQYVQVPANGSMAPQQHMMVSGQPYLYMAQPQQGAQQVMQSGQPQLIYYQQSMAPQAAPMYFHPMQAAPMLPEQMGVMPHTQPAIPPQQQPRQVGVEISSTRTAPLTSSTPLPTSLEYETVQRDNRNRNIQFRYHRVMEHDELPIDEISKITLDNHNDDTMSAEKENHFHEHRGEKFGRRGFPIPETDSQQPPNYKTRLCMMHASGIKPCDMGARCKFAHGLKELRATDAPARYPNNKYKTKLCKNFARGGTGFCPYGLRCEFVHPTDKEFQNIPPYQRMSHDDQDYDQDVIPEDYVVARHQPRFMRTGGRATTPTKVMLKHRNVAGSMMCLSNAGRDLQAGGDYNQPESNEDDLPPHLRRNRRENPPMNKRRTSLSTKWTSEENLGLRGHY
- assay_explanation: MEX-5/TCR-2 RNA interaction inhibitors, dose response, biochemical, C. elegans, fluorescence polarization (AID 1960)
Active and inactive are the calls of the source.
Catalogue of EC50 values

Take a look at these entries with their results.
compound | EC50
CCC(C)n1c(=N)c(C#N)cc2c(=O)n3cc(C)ccc3nc21 (stereo unspecified) | 254 µM (inconclusive)
CCCCC1=CC2=CC(=O)C(C)(OC(=O)c3ccco3)C(=O)C2=CO1 (stereo unspecified) | 16.2 µM (active)
O=C1/C(=C/c2ccc(Br)cc2)Oc2cc(O)ccc21 | 6.67 µM (active)

Enquiry: // lookup EC50 for C=CCSc1nnc(N2C(=O)C(O)=C(C(=O)c3ccco3)C2c2ccccc2F)s1 (stereo unspecified)
Return: 54.8 µM (active)

Enquiry: Repeat with "Oc1[nH]c(S)nc2nc(S)nc1-2"
Return: 8.3 µM (active)

Enquiry: Repeat with "CCCCN1C(=O)NC(=O)/C(=C\NNC(=O)c2ccncc2)C1=O"
Return: > 300 µM (not active)

----------
- tested_on: Voltage-gated N-type calcium channel alpha-1B subunit/Amyloid beta A4 precursor protein-binding family A member 1 (Homo sapiens, UniProt Q00975+Q02410)
- Format: protein assay
Activity calls are given as the source filed them.
Thanks in advance; please answer with one of these: y = active, n = inactive

compound | assigned_category
CC1=C(C(=O)O)N2C(=O)[C@@H](NC(=O)CCCC(=O)O)[C@H]2SC1 | n
COc1ccc([C@@H]2CC(=O)c3c(O)cc(O[C@@H]4O[C@H](CO[C@@H]5O[C@@H](C)[C@H](O)[C@@H](O)[C@H]5O)[C@@H](O)[C@H](O)[C@H]4O)cc3O2)cc1O | n
O=C1C2C(C(=O)N1/N=C/c1ccc(N3CCCCC3)o1)C1C=CC2C12CC2 (centres undefined) | y

We now examine a further compound.
Enquiry: Name the outcome recorded for "COc1ccc2cc3c(N)nn(C(=O)c4cccc([N+](=O)[O-])c4)c3nc2c1" in the assay.
Return: n

----------
- tested_on: Paired box protein Pax-8 (Homo sapiens)
- Sequence (Q06710 whole entry): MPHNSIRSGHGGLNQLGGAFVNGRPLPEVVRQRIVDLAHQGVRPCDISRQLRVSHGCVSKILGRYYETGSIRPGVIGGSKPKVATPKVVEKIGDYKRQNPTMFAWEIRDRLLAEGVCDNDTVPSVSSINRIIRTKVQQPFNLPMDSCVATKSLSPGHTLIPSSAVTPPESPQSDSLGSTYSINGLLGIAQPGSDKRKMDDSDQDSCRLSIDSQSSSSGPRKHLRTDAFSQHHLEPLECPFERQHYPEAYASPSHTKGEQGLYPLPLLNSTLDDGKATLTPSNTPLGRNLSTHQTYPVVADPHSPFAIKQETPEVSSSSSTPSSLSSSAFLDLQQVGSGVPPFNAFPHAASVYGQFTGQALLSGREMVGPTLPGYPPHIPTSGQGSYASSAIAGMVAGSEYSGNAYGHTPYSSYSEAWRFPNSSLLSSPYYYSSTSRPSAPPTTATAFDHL
- assay_explanation: inhibitors of PAX8-driven TPO luciferase reporter, dose response, RMG-I cells, cherry-pick (AID 687027);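 further: luciferase reporter driven by Pax8 target thyroperoxidase promoter measured by SteadyGlo luminescence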
- Format: functional, cell-based
Active and inactive are the calls of the source.
Catalogue of AC50 values

Take a look at these entries with their results.
molecule | endpoint_label | reported_result
C[C@@H]1CN([C@@H](C)CO)C(=O)c2cc(NS(=O)(=O)c3ccccc3)ccc2O[C@@H](C)CCCCO[C@@H]1CN(C)Cc1ccc(C(F)(F)F)cc1 | AC50 | 5.71 µM (active)
C[C@@H]1CN([C@H](C)CO)C(=O)c2cc(NS(=O)(=O)c3cccs3)ccc2O[C@@H](C)CCCCO[C@@H]1CN(C)Cc1ccc(C(F)(F)F)cc1 | AC50 | 4.55 µM (active)
CCC[C@@H](CN[C@@H](CNC)[C@H](C)CC)NCC1CCC(C(C)(C)C)CC1 (some centres undefined) | AC50 | 14.4 µM (active)

# input for lookup
Enquiry: // lookup AC50 for CC(=O)OC(C)(C)/C=C/C(=O)C(C)(O)C1C(O)CC2(C)C3CC=C4C(CC(O)C(=O)C4(C)C)C3(C)C(=O)CC12C (centres undefined)
Return: < 0.26 µM (active)
